# method description: Compound was tested for its binding affinity towards PCP receptor in rat membranes in the presence of [3H]-(+)-SKF- 10,047
# Assay type: cell membranes
endpoint: pKi
Keep in mind that pKi stands for -log10 of concentration in molar terms.

[
  {
    "compound": "CCN(CC)CCN1CC[C@@]2(C)c3cc(O)ccc3C[C@H]1[C@H]2C",
    "pKi": 5.12
  },
  {
    "compound": "C[C@@H]1[C@@H]2Cc3ccc(O)cc3[C@]1(C)CCN2CCN1CCCCCC1",
    "pKi": 7.30
  },
  {
    "compound": "CC(C)=CCN1CC[C@]2(C)c3cc(O)ccc3C[C@H]1[C@H]2C (single isomer, unassigned) [(+)-PENTAZOCINE]",
    "pKi": 5.36
  },
  {
    "compound": "C[C@@H]1[C@@H]2Cc3ccc(O)cc3[C@]1(C)CCN2CCN(C)C",
    "pKi": 5.47
  }
]

Request the reported pKi associated with C=CCN1CC[C@]2(C)c3cc(O)ccc3CC1[C@@H]2C (single isomer, unassigned; (+))
6.35

---

# test system: Sigma 2 receptor
# method description: Inhibition of [3H]DTG binding to sigma-2 sites of guinea pig brain membranes
endpoint: Ki (nM)
Form entry: value (nM) — number only.

Here's what some known entries look like.
[
  {
    "structure string": "C[C@@H]1[C@@H]2Cc3ccc(O)cc3[C@]1(C)CCN2CCNCc1ccccc1",
    "test system": "Sigma 2 receptor",
    "unit of measurement": "nM",
    "Ki": 187
  },
  {
    "structure string": "C[C@@H]1[C@@H]2Cc3ccc(O)cc3[C@]1(C)CCN2CCN1CCCC1",
    "test system": "Sigma 2 receptor",
    "unit of measurement": "nM",
    "Ki": 260
  },
  {
    "structure string": "CCN(CCN1CC[C@@]2(C)c3cc(O)ccc3C[C@H]1[C@H]2C)c1ccccc1",
    "test system": "Sigma 2 receptor",
    "unit of measurement": "nM",
    "Ki": 151
  },
  {
    "structure string": "C[C@@H]1[C@@H]2Cc3ccc(O)cc3[C@]1(C)CCN2CCN1CCCCCC1",
    "test system": "Sigma 2 receptor",
    "unit of measurement": "nM",
    "Ki": 151
  }
]

We next turn to a different molecule, shown below.
Missing value: Ki, Sigma 2 receptor, entry `C[C@@H]1[C@@H]2Cc3ccc(O)cc3[C@]1(C)CCN2CCNC1CCCCC1` . Fill in?
328

---

Each entry below carries its recorded Ki.
# test system: Opioid receptor (Rattus norvegicus, UniProt P33533+P34975+P33535)
# method description: Inhibition of [3H]naloxone binding to Opioid receptors of rat brain membranes
# Type: cell membranes, Membrane
Form entry: value (µM) — number only.

Here's what some known entries look like.
[
  {
    "structure string": "CCN(CCN1CC[C@@]2(C)c3cc(O)ccc3C[C@H]1[C@H]2C)c1ccccc1",
    "recorded result": 0.211
  },
  {
    "structure string": "C[C@@H]1[C@@H]2Cc3ccc(O)cc3[C@]1(C)CCN2CCN1CCCC1",
    "recorded result": 3.8
  },
  {
    "structure string": "CCN(CC)CCN1CC[C@@]2(C)c3cc(O)ccc3C[C@H]1[C@H]2C",
    "recorded result": 12.29
  },
  {
    "structure string": "C[C@@H]1[C@@H]2Cc3ccc(O)cc3[C@]1(C)CCN2CCNc1ccccc1",
    "recorded result": 0.0798
  },
  {
    "structure string": "C[C@@H]1[C@@H]2Cc3ccc(O)cc3[C@]1(C)CCN2CCN1CCOCC1",
    "recorded result": 8.168
  },
  {
    "structure string": "C[C@@H]1[C@@H]2Cc3ccc(O)cc3[C@]1(C)CCN2CCN1CCCCCC1",
    "recorded result": 9.128
  }
]

Missing value: Ki, Opioid receptor (Rattus norvegicus, UniProt P33533+P34975+P33535), entry `C[C@@H]1[C@@H]2Cc3ccc(O)cc3[C@]1(C)CCN2CCN1CCCCC1` . Fill in?
12

Missing value: Ki, Opioid receptor (Rattus norvegicus, UniProt P33533+P34975+P33535), entry `C[C@@H]1[C@@H]2Cc3ccc(O)cc3[C@]1(C)CCN2CCNC1CCCCC1` . Fill in?
1.466

Missing value: Ki, Opioid receptor (Rattus norvegicus, UniProt P33533+P34975+P33535), entry `C[C@@H]1[C@@H]2Cc3ccc(O)cc3[C@]1(C)CCN2CCN(C)C` . Fill in?
2.888

Missing value: Ki, Opioid receptor (Rattus norvegicus, UniProt P33533+P34975+P33535), entry `C[C@@H]1[C@@H]2Cc3ccc(O)cc3[C@]1(C)CCN2CCN(C)c1ccccc1` . Fill in?
0.0288

Entry source: ChEMBL document CHEMBL1131505
